So I've got a bunch of compounds here, and I need their Sorption values.
- MEASUREMENT PROTOCOL: Dynamic vapor sorption (DVS) testing of salt forms
- Assay type: physicochemical
- CONDITION PARAMETERS: 0-90% RH

compound="CP(=O)([O-])C(C(=O)N/C=C/c1ccc(F)c(F)c1)c1csc2ccc(Cl)cc12.[K+] (stereo not drawn) [Form F1]" result="0-90% RH: 11.35%"
compound="CP(=O)(O)C(C(=O)N/C=C/c1ccc(F)c(F)c1)c1csc2ccc(Cl)cc12.NC(CO)(CO)CO (stereo not drawn) [Form B2]" result="0-90% RH: 2.085%"
compound="CO.CP(=O)(O)C(C(=O)N/C=C/c1ccc(F)c(F)c1)c1csc2ccc(Cl)cc12 (stereo not drawn) [Form A]" result="0-90% RH: 2.94%"
compound="CP(=O)([O-])C(C(=O)N/C=C/c1ccc(F)c(F)c1)c1csc2ccc(Cl)cc12.[K+] (stereo not drawn) [Form F2]" result="0-90% RH: 11.35%"
compound="CNC[C@H](O)[C@@H](O)[C@H](O)[C@H](O)CO.CP(=O)(O)C(C(=O)N/C=C/c1ccc(F)c(F)c1)c1csc2ccc(Cl)cc12 (stereo not drawn) [Form C2]" result="0-90% RH: 5.52%"

Consider CP(=O)([O-])C(C(=O)N/C=C/c1ccc(F)c(F)c1)c1csc2ccc(Cl)cc12.[K+] (stereo not drawn) [Form F3] . Its measured Sorption is 0-90% RH: 11.35%

====

- MEASUREMENT PROTOCOL: Dynamic vapor sorption (DVS) testing of salt forms
- Assay type: physicochemical
- CONDITION PARAMETERS: 90-0% RH
MEASUREMENT KIND: Desorption

Reference set, count: 4
compound="CNC[C@H](O)[C@@H](O)[C@H](O)[C@H](O)CO.CP(=O)(O)C(C(=O)N/C=C/c1ccc(F)c(F)c1)c1csc2ccc(Cl)cc12 (centres unmarked) [Form C2]" result="90-0% RH: 6.66%"
compound="CP(=O)(O)C(C(=O)N/C=C/c1ccc(F)c(F)c1)c1csc2ccc(Cl)cc12.NC(CO)(CO)CO (centres unmarked) [Form B2]" result="90-0% RH: 2.231%"
compound="CP(=O)([O-])C(C(=O)N/C=C/c1ccc(F)c(F)c1)c1csc2ccc(Cl)cc12.[K+] (centres unmarked) [Form F2]" result="90-0% RH: 16.81%"
compound="CP(=O)([O-])C(C(=O)N/C=C/c1ccc(F)c(F)c1)c1csc2ccc(Cl)cc12.[K+] (centres unmarked) [Form F1]" result="90-0% RH: 16.81%"

Now consider the entry below.
Entry CP(=O)([O-])C(C(=O)N/C=C/c1ccc(F)c(F)c1)c1csc2ccc(Cl)cc12.[K+] (centres unmarked) [Form F3] , Desorption reported as 90-0% RH: 16.81%

====

- MEASUREMENT PROTOCOL: Dynamic vapor sorption (DVS) testing of salt forms
- Assay type: physicochemical
- CONDITION PARAMETERS: 80-90% RH
Could you please report measured Sorption for the items listed next?

Quick request: Sorption for each listed item, please.
1. CP(=O)([O-])C(C(=O)N/C=C/c1ccc(F)c(F)c1)c1csc2ccc(Cl)cc12.[K+] (stereo not shown) [Form F2]
2. CNC[C@H](O)[C@@H](O)[C@H](O)[C@H](O)CO.CP(=O)(O)C(C(=O)N/C=C/c1ccc(F)c(F)c1)c1csc2ccc(Cl)cc12 (stereo not shown) [Form C2]
3. CP(=O)([O-])C(C(=O)N/C=C/c1ccc(F)c(F)c1)c1csc2ccc(Cl)cc12.[K+] (stereo not shown) [Form F1]
4. CP(=O)([O-])C(C(=O)N/C=C/c1ccc(F)c(F)c1)c1csc2ccc(Cl)cc12.[K+] (stereo not shown) [Form F3]

1. 80-90% RH: 8.59%
2. 80-90% RH: 1.84%
3. 80-90% RH: 8.59%
4. 80-90% RH: 8.59%

Hello, the source for this data is patent US20080097110A1, in case you need it.
